measurement.target: KOR (Cavia porcellus)
Construct: from tissue
Sequence (P41144 whole entry): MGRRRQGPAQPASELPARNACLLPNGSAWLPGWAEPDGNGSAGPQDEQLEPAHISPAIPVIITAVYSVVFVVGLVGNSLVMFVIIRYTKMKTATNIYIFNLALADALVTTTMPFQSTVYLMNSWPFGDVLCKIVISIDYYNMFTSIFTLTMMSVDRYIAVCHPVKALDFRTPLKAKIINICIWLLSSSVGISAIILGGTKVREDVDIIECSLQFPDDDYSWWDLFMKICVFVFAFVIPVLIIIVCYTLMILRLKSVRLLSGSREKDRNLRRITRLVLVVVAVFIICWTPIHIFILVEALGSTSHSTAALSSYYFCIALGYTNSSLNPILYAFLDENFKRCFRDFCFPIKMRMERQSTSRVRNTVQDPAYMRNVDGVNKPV
experimental.protocol: Opioid receptor binding, KOR, guinea pig brain membranes
particulars: Binding Ki (nM) KOR, in vitro binding assay, guinea pig brain membranes
readout.label: Ki (nM)
Numeric only. Scale: nM

INSERT INTO assay_data (compound, readout_label, unit_label, reported_measurement) VALUES
  ('CO[C@@]12CC[C@H](N[C@@H](CCSC)C(=O)O)[C@@H]3Oc4c(O)ccc5c4[C@@]31CCN(C)[C@@H]2C5 [Compound 23]', 'Ki', 'nM', 109),
  ('CCOC(=O)CN[C@@H]1CC[C@@]2(OC)[C@H]3Cc4ccc(O)c5c4[C@@]2(CCN3C)[C@H]1O5 [HS731-Et ester]', 'Ki', 'nM', 21.9),
  ('CO[C@@]12CC[C@@H](N[C@H](C(=O)O)[C@@H](C)O)[C@@H]3Oc4c(O)ccc5c4[C@@]31CCN(C)[C@@H]2C5 [Compound 35]', 'Ki', 'nM', 58.6),
  ('CO[C@@]12CC[C@@H](N[C@@H](Cc3c[nH]c4ccccc34)C(=O)O)[C@@H]3Oc4c(O)ccc5c4[C@@]31CCN(C)[C@@H]2C5 [Compound 46]', 'Ki', 'nM', 8.66);

INPUT: Return value of Ki for input CCOC(=O)CN[C@H]1CC[C@@]2(OC)[C@H]3Cc4ccc(O)c5c4[C@@]2(CCN3C)[C@H]1O5 [HS730-Et ester] , no commentary.
OUTPUT: 8.57

INPUT: Return value of Ki for input CO[C@@]12CC[C@H](NCC(=O)OC(C)(C)C)[C@@H]3Oc4c(O)ccc5c4[C@@]31CCN(C)[C@@H]2C5 [HS730-t-Bu ester] , no commentary.
OUTPUT: 12.1

INPUT: Return value of Ki for input CO[C@@]12CC[C@H](N[C@@H](CCC(N)=O)C(=O)OC(C)(C)C)[C@@H]3Oc4c(O)ccc5c4[C@@]31CCN(C)[C@@H]2C5 [17-t-Bu ester] , no commentary.
OUTPUT: 8.97

INPUT: Return value of Ki for input CO[C@@]12CC[C@H](N[C@@H](C)C(=O)OC(C)(C)C)[C@@H]3Oc4c(O)ccc5c4[C@@]31CCN(C)[C@@H]2C5 [1-t-Bu ester] , no commentary.
OUTPUT: 11.3

INPUT: Return value of Ki for input CO[C@@]12CC[C@@H](N[C@@H](C)C(=O)OC(C)(C)C)[C@@H]3Oc4c(O)ccc5c4[C@@]31CCN(C)[C@@H]2C5 [2-t-Bu ester] , no commentary.
OUTPUT: 93.6

INPUT: Return value of Ki for input CO[C@@]12CC[C@H](N[C@@H](CC(N)=O)C(=O)O)[C@@H]3Oc4c(O)ccc5c4[C@@]31CCN(C)[C@@H]2C5 [Compound 26] , no commentary.
OUTPUT: 74

INPUT: Return value of Ki for input COC12CCC(NC(C(=O)O)C(C)C)C3Oc4c(O)ccc5c4C31CCN(C)C2C5 (single isomer, unassigned) [Compound 31] , no commentary.
OUTPUT: 159

INPUT: Return value of Ki for input CO[C@@]12CC[C@H](N[C@@H](CO)C(=O)OC(C)(C)C)[C@@H]3Oc4c(O)ccc5c4[C@@]31CCN(C)[C@@H]2C5 [36-t-Bu ester] , no commentary.
OUTPUT: 6.2

INPUT: Return value of Ki for input COC12CCC(NC(C(=O)O)C(C)C)C3Oc4c(O)ccc5c4C31CCN(C)C2C5 (single isomer, unassigned) [Compound 30] , no commentary.
OUTPUT: 202

INPUT: Return value of Ki for input CO[C@@]12CC[C@H](N[C@@H](CCCCN)C(=O)O)[C@@H]3Oc4c(O)ccc5c4[C@@]31CCN(C)[C@@H]2C5 [Compound 38] , no commentary.
OUTPUT: 12.6

INPUT: Return value of Ki for input COC12CCC(NCCC(=O)O)C3Oc4c(O)ccc5c4C31CCN(C)C2C5 (single isomer, unassigned) [Compound 21] , no commentary.
OUTPUT: 182

INPUT: Return value of Ki for input CCC(C)C(NC1CCC2(OC)C3Cc4ccc(O)c5c4C2(CCN3C)C1O5)C(=O)OC(C)(C)C (single isomer, unassigned) [43-t-Bu ester] , no commentary.
OUTPUT: 208

INPUT: Return value of Ki for input CCO[C@@]12CC[C@H](NCC(=O)OC(C)(C)C)[C@@H]3Oc4c(O)ccc5c4[C@@]31CCN(C)[C@@H]2C5 [5-t-Bu ester] , no commentary.
OUTPUT: 15
